# Tested on: La Crosse virus (LACV)
# method-summary: microbe, parasite or virus in culture
# Assay type: cell-based
# experimental-parameters: read-out: Avg Activity (LACV); hydrochloride
pEC50: −log10 of the molar value. Structures can show the parent of a compound that is named as a salt.
value-type: pEC50

compound | value-observed
COc1cc(NC(=S)NC(=O)c2ccc(C(C)(C)C)cc2)ccc1N [Compound 18, hydrochloride] | 5.00 to 6.00

----------
# System: HIV-1
# method-summary: microbe, parasite or virus in culture
# Assay type: cell-based
# experimental-parameters: Human immunodeficiency virus 1, read-out: Misc Virus Activity: HIV-1
pEC50: −log10 of the molar value.

molecular-string | pEC50
COc1cc(NC(=S)NC(=O)c2ccc(C(C)(C)C)cc2)ccc1NC(=O)c1ccccc1Cl | > 6.00
